Each recorded value in this set is attributed to ChEMBL document CHEMBL3784975.

- measurement protocol: Cytotoxicity against human […] cells after 48 hrs by crystal violet staining based assay
- Format: functional, cell-based
property measured: pIC50
Answers are plain numbers, as −log10 of the molar value.

cpd smiles | pIC50
CN1C(=O)N[C@H]2[C@@H]3NC(=O)c4ccc(Br)n4[C@@H]3C[C@]21O | 6.49

I have 2 molecules here; please give me pIC50 for each one.
1. Cc1ccc2n1[C@@H]1C[C@]3(O)[C@@H](NC(=O)N3C)[C@@H]1NC2=O
2. CN1C(=O)N[C@H]2[C@@H]3NC(=O)c4cc(Cl)c(Br)n4[C@@H]3C[C@]21O

1. 6.55
2. 6.27

====

- measurement protocol: Cytotoxicity against human A3 cells after 48 hrs by crystal violet staining based assay
- Type: functional, cell-based
- condition label: A3, 48 h
property measured: pIC50
Numbers only, as −log10 of the molar value.

cpd smiles | pIC50
CN1C(=O)N[C@H]2[C@@H]3NC(=O)c4ccc(Br)n4[C@@H]3C[C@]21O | 6.42

# lookup: pIC50 of "CN1C(=O)N[C@H]2[C@@H]3NC(=O)c4cc(Cl)c(Br)n4[C@@H]3C[C@]21O" 6.33

====

- Tested on: A-431
- measurement protocol: Cytotoxicity against human A431 cells after 48 hrs by crystal violet staining based assay
- Type: functional, cell-based
- condition label: A-431, 48 h
Please provide measured pIC50 for the entries that follow.
Answers are plain numbers, as −log10 of the molar value.

compound | measurement target | property measured | measured result
CN1C(=O)N[C@H]2[C@@H]3NC(=O)c4cc(Cl)c(Br)n4[C@@H]3C[C@]21O | A-431 | pIC50 | 6.47

Form field: pIC50 recorded for CN1C(=O)N[C@H]2[C@@H]3NC(=O)c4ccc(Br)n4[C@@H]3C[C@]21O [AGELASTATIN A] with A-431 (enter value) 6.34

====

- measurement protocol: Cytotoxicity against human CLL cells after 24 hrs by annexin-V/PI staining based flow cytometry in presence of human plasma protein
- Assay type: functional, cell-based
property measured: IC50 (nM)
Numbers only, in nM.

cpd smiles | IC50 / nM
CN1C(=O)N[C@H]2[C@@H]3NC(=O)c4ccc(Br)n4[C@@H]3C[C@]21O | 710

// next item, IC50 requested
Query (molecule): "CN1C(=O)N[C@H]2[C@@H]3NC(=O)c4cc(Cl)c(Br)n4[C@@H]3C[C@]21O" ; field requested: IC50 2820

====

- measurement protocol: Half life of compound in water at 25 deg C
- Assay type: physicochemical
property measured: half-life
Answer format: number, then unit.

I would be grateful if you could share the reported half-life for "CC(=O)CCO[C@@]12C[C@@H]3[C@@H](NC(=O)c4ccc(Br)n43)[C@@H]1NC(=O)N2C" . 16 h
